test system: MALME-3M melanoma; assay: NCI tumour cell line growth inhibition, 48 h
compounds and their reported TGI
Write it as a number; the unit µM goes unstated.

Can you look up the measured TGI of `CCN(CC)CCNc1ccc2nnn3c4ccc(C)cc4c(=O)c1c23` for me?
25.7

Can you look up the measured TGI of `CCCCCCCCNc1cc2c3c(c1)CCCN3CCC2` for me?
8.53

Can you look up the measured TGI of `O=C(NNC(=S)Nc1ccccc1)c1cc(-c2ccccc2)nc2ccccc12` for me?
82.4

###

system: EKVX NSCLC; assay: NCI tumour cell line growth inhibition, 48 h
OBSERVED_PROPERTY: GI50

Below: 3 compounds and their reported GI50.
{"COMPOUND": "CCN(Cc1cc(Nc2nc(C)cn3c(-c4cn[nH]c4)cnc23)sn1)C(C)(C)CO", "GI50": "578 nM"}
{"COMPOUND": "C[C@@]1(C(=O)O)CCC[C@]2(C)C1CC[C@@]13CC(=O)[C@@](CO)(CC[C@]12O)C3 (stereo partly drawn)", "GI50": "> 100000 nM"}
{"COMPOUND": "N.N.N.N.[Co+3].[N-]=[N+]=[N-].[N-]=[N+]=[N-].[N-]=[N+]=[N-]", "GI50": "> 100000 nM"}

Request body: readout GI50, system EKVX NSCLC, query `COc1cc(/C=C\c2cc(OC)c(OC)c(OC)c2)cc(NC(=O)/C=C/c2cc(OC)c(OC)c(OC)c2)c1OC` . Return the value.
15700 nM

Request body: readout GI50, system EKVX NSCLC, query Fc1ccc(C2CC(c3cccc(Nc4ccncc4)c3)=NN2c2ccc(Cl)cc2)cc1 (stereo not drawn) . Return the value.
2110 nM

Request body: readout GI50, system EKVX NSCLC, query `COc1cccc(N2CCN(CC(=O)N3CCN(c4nnc(-c5ccc(Cl)cc5)c(-c5ccc(Cl)cc5)n4)CC3)CC2)c1` . Return the value.
12300 nM

Request body: readout GI50, system EKVX NSCLC, query `COc1ncnc2c(-c3ccccc3)cn(COCc3ccccc3)c12` . Return the value.
2370 nM

Request body: readout GI50, system EKVX NSCLC, query `COC12C=C/C(=C(/C(=O)OCc3cncnc3)C(=O)CCCCCCCCC3(OC)C=C/C(=C(/C(=O)OCc4cncnc4)C(=O)CCCCCCCC1)O3)O2` . Return the value.
717 nM
